Known mean fluorescence relative to chimeric antibody of a selection of binders
- targetUnderTest: T1, rat CD47 (rat, UniProt P97829 19-303)
- T1 construct: whole, on cells; also called CD47 on rat red blood cells
- T1 sequence (looked up): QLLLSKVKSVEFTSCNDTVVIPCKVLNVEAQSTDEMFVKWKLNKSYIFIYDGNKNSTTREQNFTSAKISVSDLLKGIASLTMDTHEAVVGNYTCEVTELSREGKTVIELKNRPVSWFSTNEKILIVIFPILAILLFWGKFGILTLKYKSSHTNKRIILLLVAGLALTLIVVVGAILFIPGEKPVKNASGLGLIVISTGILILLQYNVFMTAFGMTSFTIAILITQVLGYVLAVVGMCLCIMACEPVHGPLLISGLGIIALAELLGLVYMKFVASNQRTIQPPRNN
- assayOverview: flow cytometry on RBCs, antibody 10 ng/ml

Examples from the recorded data:
pVxK7b-037-hum01-LC/pVxK7b-037-hum01-HC (antibody, human IgG1, V domains shown, Full-length human IgG1/kappa in CHO supernatant; Variable entries end within framework 4 (...FGQG / ...WGQG); also called Clone 1) VH: QVQLQESGPGLVKPSQTLSLTCTVSGYTFTNYYVFWVRQARGQRLEWIGDINPVNGDTNFNEKFKNRVTISADKSISTAYLQWSSLKASDTAMYYCARGGYTMDYWGQG VL: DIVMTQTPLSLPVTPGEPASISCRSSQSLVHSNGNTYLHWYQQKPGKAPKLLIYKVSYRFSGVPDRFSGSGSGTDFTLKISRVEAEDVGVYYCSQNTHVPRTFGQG; 2.7 fold of chimera
pVxK7b-037-hum16-LC/pVxK7b-037-hum16-HC (antibody, human IgG1, V domains shown, Full-length human IgG1/kappa in CHO supernatant; Variable entries end within framework 4 (...FGQG / ...WGQG); also called Clone 16) VH: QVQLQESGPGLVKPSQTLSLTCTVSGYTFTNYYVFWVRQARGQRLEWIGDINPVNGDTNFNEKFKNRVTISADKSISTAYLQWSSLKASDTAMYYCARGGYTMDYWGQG VL: AIQLTQSPSSLSASVGDRVTITCRSSQSLVHSNGNTYLHWYQQKPGQAPRLLIYKVSYRFSGVPDRFSGSGSGTDFTLKISRVEAEDVGVYYCSQNTHVPRTFGQG; 2.1 fold of chimera
pVxK7b-037-hum12-LC/pVxK7b-037-hum12-HC (antibody, human IgG1, V domains shown, Full-length human IgG1/kappa in CHO supernatant; Variable entries end within framework 4 (...FGQG / ...WGQG); also called Clone 12) VH: QVQLQESGPGLVKPGATVKISCKVSGYTFTNYYVFWVRQARGQRLEWIGDINPVNGDTNFNEKFKNRVTITADKSTSTAYMELSSLRSEDTAVYYCARGGYTMDYWGQG VL: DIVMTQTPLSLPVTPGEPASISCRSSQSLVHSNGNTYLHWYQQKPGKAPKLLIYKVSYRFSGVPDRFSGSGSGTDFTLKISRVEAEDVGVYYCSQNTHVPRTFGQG; 1.3 fold of chimera
pVxK7b-037-hum07-LC/pVxK7b-037-hum07-HC (antibody, human IgG1, V domains shown, Full-length human IgG1/kappa in CHO supernatant; Variable entries end within framework 4 (...FGQG / ...WGQG); also called Clone 7) VH: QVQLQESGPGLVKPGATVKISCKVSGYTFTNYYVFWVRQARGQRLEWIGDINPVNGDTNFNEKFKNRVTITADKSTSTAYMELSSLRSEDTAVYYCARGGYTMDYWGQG VL: DIVMTQTPLSLPVTPGEPASISCRSSQSLVHSNGNTYLHWYLQKPGQSPQLLIYKVSYRFSGVPDRFSGSGSGTDFTLKISRVEAEDVGVYYCSQNTHVPRTFGQG; 0.8 fold of chimera

Consider the record given below.
Request: Given the binder pVxK7b-037-hum10-LC/pVxK7b-037-hum10-HC (antibody, human IgG1, V domains shown, Full-length human IgG1/kappa in CHO supernatant; Variable entries end within framework 4 (...FGQG / ...WGQG); also called Clone 10) VH: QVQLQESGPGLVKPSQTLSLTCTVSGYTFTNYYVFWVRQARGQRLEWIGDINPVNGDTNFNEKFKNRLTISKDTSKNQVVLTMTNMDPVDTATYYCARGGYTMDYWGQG VL: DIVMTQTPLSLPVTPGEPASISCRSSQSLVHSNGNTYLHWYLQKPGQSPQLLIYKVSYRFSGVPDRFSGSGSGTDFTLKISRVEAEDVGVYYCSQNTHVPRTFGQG , what is its reported mean fluorescence relative to chimeric antibody?
Result: 2.9 fold of chimera
